# Target Under Test: T1, EsCas13d, nuclease-dead (Eubacterium siraeum, UniProt B0MS50, R295A;H300A;R849A;H854A)
# T1 sequence: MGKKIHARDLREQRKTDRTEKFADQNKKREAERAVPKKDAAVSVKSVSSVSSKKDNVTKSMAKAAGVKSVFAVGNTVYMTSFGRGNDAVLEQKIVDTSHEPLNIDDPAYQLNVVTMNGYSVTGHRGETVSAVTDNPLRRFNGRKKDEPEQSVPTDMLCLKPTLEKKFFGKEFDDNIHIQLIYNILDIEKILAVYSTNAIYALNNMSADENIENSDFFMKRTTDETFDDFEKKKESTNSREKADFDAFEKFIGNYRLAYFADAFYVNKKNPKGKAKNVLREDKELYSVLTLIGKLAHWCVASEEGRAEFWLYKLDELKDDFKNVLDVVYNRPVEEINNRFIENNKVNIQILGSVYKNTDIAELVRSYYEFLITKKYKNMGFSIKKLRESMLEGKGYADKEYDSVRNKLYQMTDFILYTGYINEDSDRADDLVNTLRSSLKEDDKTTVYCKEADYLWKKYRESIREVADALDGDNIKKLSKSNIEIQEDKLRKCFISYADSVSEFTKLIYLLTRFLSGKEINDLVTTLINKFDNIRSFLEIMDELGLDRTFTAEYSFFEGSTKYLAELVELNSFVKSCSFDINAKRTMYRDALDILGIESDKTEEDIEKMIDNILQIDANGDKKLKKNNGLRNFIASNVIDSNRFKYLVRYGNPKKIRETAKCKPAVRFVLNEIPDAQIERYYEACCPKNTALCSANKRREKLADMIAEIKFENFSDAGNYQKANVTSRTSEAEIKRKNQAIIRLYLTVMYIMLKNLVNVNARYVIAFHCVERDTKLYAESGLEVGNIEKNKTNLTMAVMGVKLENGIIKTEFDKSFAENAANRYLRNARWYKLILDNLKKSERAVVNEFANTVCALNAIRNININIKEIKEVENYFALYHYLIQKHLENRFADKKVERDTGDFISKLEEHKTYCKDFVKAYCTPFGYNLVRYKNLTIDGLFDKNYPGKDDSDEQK
# Assay Comment: crRNA (strand 1, pre-loaded); Mg2+; 40 mM Tris-HCl pH 7.5, 150 mM NaCl, 6 mM MgCl2, 1 mM DTT, 0.1% Tween-20, 0.2 mg/ml BSA; 25 C; 10 min per concentration, then washed
# Experimental Context: tags: His6-TwinStrep-SUMO cleaved; N-terminal SNAP kept (SNAP-Surface 488); label: 3' end held by stalled T7 RNA polymerase

Binder	Kd
target 2 MT 5'PFS AAC 3'PFS CAA (mixed) RNA 1: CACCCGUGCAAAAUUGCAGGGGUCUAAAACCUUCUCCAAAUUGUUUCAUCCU RNA 2: GGGAAUGGAUCCACAUCUACGAAUUCAACAGGAUGAAACAAUUUGGAGAAGCAAAGAUCGGAAGAGCACACGU	~7 nM
target 1 insC 3' of 9,insA 3' of 5 (mixed) RNA 1: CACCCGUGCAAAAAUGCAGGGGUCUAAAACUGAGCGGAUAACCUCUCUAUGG RNA 2: GGGAAUGGAUCCACAUCUACGAAUUCGUACCAUAGAGAGGUUACUCCGACUCACCGAGAUCGGAAGAGCACACGU	5.89 nM
target 1 MT 5'PFS ACA 3'PFS AUC (mixed) RNA 1: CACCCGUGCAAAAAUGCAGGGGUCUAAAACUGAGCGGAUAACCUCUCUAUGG RNA 2: GGGAAUGGAUCCACAUCUACGAAUUCACACCAUAGAGAGGUUAUCCGCUCAAUCAGAUCGGAAGAGCACACGU	56 nM
target 1 insA 3' of 11,insU 3' of 9 (mixed) RNA 1: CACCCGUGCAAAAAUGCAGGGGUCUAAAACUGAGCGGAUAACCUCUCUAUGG RNA 2: GGGAAUGGAUCCACAUCUACGAAUUCGUACCAUAGAGAGGUAUAUUCCGCUCACCGAGAUCGGAAGAGCACACGU	27.8 nM
target 3 C1A,U22G (mixed) RNA 1: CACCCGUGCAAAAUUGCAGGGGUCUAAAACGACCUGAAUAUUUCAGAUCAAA RNA 2: GGGAAUGGAUCCACAUCUACGAAUUCGUUGUUGAUCUGAAAUAUUCAGGUAUGCAGAUCGGAAGAGCACACGU	~87 nM
target 1 complement block 4-14 (mixed) RNA 1: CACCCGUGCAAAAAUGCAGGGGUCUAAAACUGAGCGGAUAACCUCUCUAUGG RNA 2: GGGAAUGGAUCCACAUCUACGAAUUCGUACCAUAGAGUCCAAUAGGCGUCACCGAGAUCGGAAGAGCACACGU	63 nM
target 1 MT 5'PFS UGC 3'PFS AAG (mixed) RNA 1: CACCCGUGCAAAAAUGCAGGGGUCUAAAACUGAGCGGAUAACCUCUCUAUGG RNA 2: GGGAAUGGAUCCACAUCUACGAAUUCUGCCCAUAGAGAGGUUAUCCGCUCAAAGAGAUCGGAAGAGCACACGU	76 nM
target 1 MT 5'PFS GCG 3'PFS UCG (mixed) RNA 1: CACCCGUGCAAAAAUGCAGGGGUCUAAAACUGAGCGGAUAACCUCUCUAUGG RNA 2: GGGAAUGGAUCCACAUCUACGAAUUCGCGCCAUAGAGAGGUUAUCCGCUCAUCGAGAUCGGAAGAGCACACGU	12.8 nM

Data provenance: paper PMC10786891
